Test system: 100 A. baumannii strains (50 MDR, 50 non-MDR)
Test: MIC broth microdilution at IHMA Europe, panel of 100 strains
Format: cell-based
Details: Acinetobacter baumannii, A. baumannii IHMA 2129256, Qatar 2019, Non-MDR; read-out: MIC
MEASURED PARAMETER: MIC

[[record]]
compound = "CO/N=C(\\C(=O)N[C@@H]1C(=O)N2C(C(=O)[O-])=C(C[N+]3(C)CCCC3)CS[C@H]12)c1csc(N)n1 [Cefepime, cefepime]"
result = "1 µg/mL"

[[record]]
compound = "COc1c(N2C[C@@H]3CCCN[C@@H]3C2)c(F)cc2c(=O)c(C(=O)O)cn(C3CC3)c12"
result = "≤ 0.5 µg/mL"

[[record]]
compound = "C[C@@H](O)[C@H]1C(=O)N2C(C(=O)O)=C(SCCNC=N)C[C@H]12"
result = "≤ 0.25 µg/mL"

[[record]]
compound = "CN(C)c1cc(NC(=O)CNC(C)(C)C)c(O)c2c1C[C@H]1C[C@H]3[C@H](N(C)C)C(O)=C(C(N)=O)C(=O)[C@@]3(O)C(O)=C1C2=O"
result = "0.12 µg/mL"

[[record]]
compound = "O=C(O)c1cn(C2CC2)c2cc(N3CCNCC3)c(F)cc2c1=O"
result = "≤ 0.06 µg/mL"

[[record]]
compound = "C[C@@H](O)[C@H]1C(=O)N2C(C(=O)O)=C(S[C@@H]3CN[C@H](C(=O)N(C)C)C3)[C@H](C)[C@H]12"
result = "0.12 µg/mL"


Ask: Checklist item: MIC tested on 100 A. baumannii strains (50 MDR, 50 non-MDR), entry Cc1[nH]c(C(=O)Nc2nc3c(N4[C@@H]5CC[C@H]4COC5)cc(C(=O)O)cc3s2)c(Cl)c1Cl , value?
Reply: 4 µg/mL

* * *

Experiment: mitochondrial toxicity glu/gal assay
Type: cell-based
Conditions: human, glucose, 50 µM; read-out: cell viability (ATP), % of control
MEASURED PARAMETER: viability at 50 µM
Include the unit after the number when you answer.

Ask: Query (compound): Cc1[nH]c(C(=O)Nc2nc3c(N4CCOCC4)cc(C(=O)O)cc3s2)c(Cl)c1Cl ; field requested: viability at 50 µM
Reply: 107%

* * *

System: 100 A. baumannii strains (50 MDR, 50 non-MDR)
Test: MIC broth microdilution at IHMA Europe, panel of 100 strains
Assay type: cell-based
Settings: Acinetobacter baumannii, A. baumannii IHMA 2193485, Venezuela 2020, Non-MDR; read-out: MIC
MEASURED PARAMETER: MIC (µg/mL)
// units = µg/mL; emit number, no label

[[record]]
compound = "Cc1[nH]c(C(=O)Nc2nc3c(N4[C@@H]5CC[C@H]4COC5)cc(C(=O)O)cc3s2)c(Cl)c1Cl"
value_unit = "µg/mL"
quantitative_readout = 1

[[record]]
compound = "CO/N=C(\\C(=O)N[C@@H]1C(=O)N2C(C(=O)[O-])=C(C[N+]3(C)CCCC3)CS[C@H]12)c1csc(N)n1 [Cefepime, cefepime]"
value_unit = "µg/mL"
quantitative_readout = 1

[[record]]
compound = "CN(C)c1cc(NC(=O)CNC(C)(C)C)c(O)c2c1C[C@H]1C[C@H]3[C@H](N(C)C)C(O)=C(C(N)=O)C(=O)[C@@]3(O)C(O)=C1C2=O"
value_unit = "µg/mL"
quantitative_readout = 0.12


Ask: Checklist item: MIC tested on 100 A. baumannii strains (50 MDR, 50 non-MDR), entry C[C@@H](O)[C@H]1C(=O)N2C(C(=O)O)=C(S[C@@H]3CN[C@H](C(=O)N(C)C)C3)[C@H](C)[C@H]12 , value?
Reply: 0.12

* * *

We begin with a simple list: items and their reported MIC.
Tested on: 100 A. baumannii strains (50 MDR, 50 non-MDR)
Experiment: MIC broth microdilution at IHMA Europe, panel of 100 strains
Assay type: cell-based
Settings: Acinetobacter baumannii, A. baumannii IHMA 1815856, Israel 2018, MDR; read-out: MIC

[[record]]
input_smiles = "C[C@@H](O)[C@H]1C(=O)N2C(C(=O)O)=C(S[C@@H]3CN[C@H](C(=O)N(C)C)C3)[C@H](C)[C@H]12"
measured_parameter = "MIC"
result = "> 16 µg/mL"

[[record]]
input_smiles = "O=C(O)c1cn(C2CC2)c2cc(N3CCNCC3)c(F)cc2c1=O"
measured_parameter = "MIC"
result = "> 16 µg/mL"


Ask: Query (molecule): C[C@@H](O)[C@H]1C(=O)N2C(C(=O)O)=C(SCCNC=N)C[C@H]12 ; field requested: MIC
Reply: > 16 µg/mL

Ask: Try the molecule COc1c(N2C[C@@H]3CCCN[C@@H]3C2)c(F)cc2c(=O)c(C(=O)O)cn(C3CC3)c12
Reply: 8 µg/mL

* * *

pIC50, A. baumannii DNA gyrase (Acinetobacter baumannii): measured values
Lab note — pIC50 values are minus log10 of concentrations in M.

[[record]]
molecule = "CO[C@@H]1[C@@H](OC(N)=O)[C@@H](O)[C@H](Oc2ccc3c(O)c(NC(=O)c4ccc(O)c(CC=C(C)C)c4)c(=O)oc3c2C)OC1(C)C [novobiocin]"
quantitative_readout = 8.66


Ask: Query (molecule): Cc1[nH]c(C(=O)Nc2nc3c(N4CCOCC4)cc(C(=O)O)cc3s2)c(Cl)c1Cl [7a] ; field requested: pIC50
Reply: 8.62

* * *

Experiment: physchem
Assay type: physicochemical
Details: pH 7.4, PBS pH 7.4; read-out: thermodynamic solubility, Experiment 1
MEASURED PARAMETER: solubility thermodynamic (µM)
// units = µM; emit number, no label

Ask: Query (compound): Cc1[nH]c(C(=O)Nc2nc3c(N4CCOCC4)cc(C(=O)O)cc3s2)c(Cl)c1Cl ; field requested: solubility thermodynamic
Reply: 100

* * *

Test system: S. pneumoniae (n = 12)
Assay: MIC broth microdilution at IHMA Europe
Format: cell-based
Settings: Streptococcus pneumoniae, S. pneumoniae IHMA N° 1831562; read-out: MIC
MEASURED PARAMETER: MIC

Some entries whose results are on file:
[[record]]
molecule = "C[C@@H](O)[C@H]1C(=O)N2C(C(=O)O)=C(SCCNC=N)C[C@H]12 [Imipenem, imipenem]"
experimental_system = "S. pneumoniae (n = 12)"
measured_parameter = "MIC"
result = "≤ 0.015 µg/mL"

[[record]]
molecule = "Cc1[nH]c(C(=O)Nc2nc3c(N4[C@@H]5CC[C@H]4COC5)cc(C(=O)O)cc3s2)c(Cl)c1Cl [7h]"
experimental_system = "S. pneumoniae (n = 12)"
measured_parameter = "MIC"
result = "0.25 µg/mL"


Ask: Query (molecule): CC1(C)S[C@@H]2[C@H](NC(=O)[C@H](N)c3ccccc3)C(=O)N2[C@H]1C(=O)O [Ampicillin, ampicillin] ; field requested: MIC
Reply: ≤ 0.03 µg/mL

Ask: Try the molecule C[C@H]1COc2c(N3CCN(C)CC3)c(F)cc3c(=O)c(C(=O)O)cn1c23.C[C@H]1COc2c(N3CCN(C)CC3)c(F)cc3c(=O)c(C(=O)O)cn1c23.O [Levofloxacin, levofloxacin]
Reply: 1 µg/mL

Ask: Try the molecule Cc1[nH]c(C(=O)Nc2nc3c(N4CCOCC4)cc(C(=O)O)cc3s2)c(Cl)c1Cl [7a]
Reply: 0.5 µg/mL

* * *

Experiment: mitochondrial toxicity glu/gal assay
Type: cell-based
Conditions: human, galactose, 50 µM; read-out: cell viability (ATP), % of control
MEASURED PARAMETER: viability at 50 µM
Include the unit after the number when you answer.

Ask: Query (compound): Cc1[nH]c(C(=O)Nc2nc3c(N4CCOCC4)cc(C(=O)O)cc3s2)c(Cl)c1Cl ; field requested: viability at 50 µM
Reply: 98%

* * *

System: 100 A. baumannii strains (50 MDR, 50 non-MDR)
Assay: MIC broth microdilution at IHMA Europe, panel of 100 strains
Format: cell-based
Settings: Acinetobacter baumannii, A. baumannii IHMA 1995161, Czech Republic 2019, Non-MDR; read-out: MIC
We begin with a simple list: items and their reported MIC.
// units = µg/mL; emit number, no label

[[record]]
compound = "CN(C)c1cc(NC(=O)CNC(C)(C)C)c(O)c2c1C[C@H]1C[C@H]3[C@H](N(C)C)C(O)=C(C(N)=O)C(=O)[C@@]3(O)C(O)=C1C2=O [Tigecycline, tigecycline]"
measured_parameter = "MIC"
value_unit = "µg/mL"
quantitative_readout = 0.12

[[record]]
compound = "Cc1[nH]c(C(=O)Nc2nc3c(N4[C@@H]5CC[C@H]4COC5)cc(C(=O)O)cc3s2)c(Cl)c1Cl [7h]"
measured_parameter = "MIC"
value_unit = "µg/mL"
quantitative_readout = 2


Ask: Query (compound): C[C@@H](O)[C@H]1C(=O)N2C(C(=O)O)=C(S[C@@H]3CN[C@H](C(=O)N(C)C)C3)[C@H](C)[C@H]12 [Meropenem, meropenem] ; field requested: MIC
Reply: 0.25

Ask: Try the compound CO/N=C(\C(=O)N[C@@H]1C(=O)N2C(C(=O)[O-])=C(C[N+]3(C)CCCC3)CS[C@H]12)c1csc(N)n1 [Cefepime, cefepime]
Reply: 1
